Hello, the source for this data is PubChem BioAssay (NCI), in case you need it.

ASSAY PROCEDURE: NCI Yeast Anticancer Drug Screen. Data for the sgs1 mgt1 strain (AID 161);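 further: 0% = growth of cultures given vehicle only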
TEST PARAMETERS: S. cerevisiae sgs1 mgt1 strain, active compounds read high; at 50.0 µM unless noted
The panel holds about 79,000 compounds, 15% with a hit somewhere; the sample as a whole holds those more often.
Measured growth inhibition accompanies every entry in the list below.
A number alone suffices; assume %.

Answered cases to consult:
MOLECULE	growth inhibition, %
CCOC(=O)/C(Cc1ccc2ccccc2n1)=N/O	0.9
CCCCC(C(=O)O)N(C)C (configuration not stated)	-5.8
CCC1CC2CC(c3cc4c(cc3OC)N(C)C3C(O)(C(=O)OC)C(OC(C)=O)C5(CC)C=CCN6CCC43C65)c3[nH]c4ccccc4c3CCN(C1)C2 (configuration not stated)	28.9

Requested read-out: growth inhibition. Entry: C1CCC2=NCCCN2CC1
10.6

So what's the measured growth inhibition for this one? Nc1nnc2nc(CC(=O)c3ccc(Cl)c(Cl)c3)/c(=C/C(=O)c3ccc(Cl)c(Cl)c3)n12
-12.3

Find the recorded growth inhibition belonging to O=c1[nH]c2cc(Cl)ccc2nc1/C(=N\O)C(O)c1ccc([N+](=O)[O-])cc1 (configuration not stated) and report it.
-21.2

Tell me the measured growth inhibition of CC(=O)Nc1cc(Cl)ccc1F , please.
12.4

====

ASSAY PROCEDURE: NCI Yeast Anticancer Drug Screen. Data for the mlh1 rad18 strain (AID 175)
TEST PARAMETERS: S. cerevisiae mlh1 rad18 strain growth inhibition; at 50.0 µM unless noted
Compounds without any hit were thinned out: in the full panel of roughly 79,000, 15% have a hit. Activity calls are given as the source filed them. Rule as the data show it: active = growth inhibition above about 70%; inactive = the rest.
Use one of these outcomes when replying: active, inactive

Please share the test call associated with NC(CCn1cnc2c(=O)[nH]cnc21)C(=O)O (stereo not drawn) .
inactive

====

ASSAY PROCEDURE: NCI Yeast Anticancer Drug Screen. Data for the cln2 rad14 strain (AID 165);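 further: 0% = growth equal to vehicle treated cultures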
TEST PARAMETERS: S. cerevisiae cln2 rad14 strain, active compounds read high; at 50.0 µM unless noted
Compounds without any hit were thinned out: in the full panel of roughly 79,000, 15% have a hit. Where a SMILES comes first, the peptide text is derived from it. [ ]: non-standard residue; d: D form. The star is where a group is joined. NMeF = CN[C@@H](Cc1ccccc1)C(=O)O; NMeV = CN[C@H](C(=O)O)C(C)C; Boc = CC(C)(C)OC(=O)*; OBn = c1ccc(CO*)cc1
MEASURED PARAMETER: growth inhibition (%)
Express the result in % but write the number alone.

Use the examples below as a reference point.
MOLECULE	UNIT ABBREVIATION	ASSAY VALUE
Cc1ncc(C(N)=S)c(N)n1	%	-47.4
N/N=C1\C(=O)N(c2ccc(Cl)c(Cl)c2)C(=O)C1C(=O)Nc1ccc(Cl)c(Cl)c1 (stereo not given)	%	-16.4
CC1CC(C)OC(c2ccccc2Cl)O1 (stereo not given)	%	-8.1
CCOC(=O)c1ccc(-c2ccc(Cl)cc2)[nH]1	%	2.45
O=c1cc2ccc(Cl)cc2n[nH]1	%	-33.4
CC(/C(=N/O)c1ccccc1)N1C(=O)c2ccccc2C1=O (stereo not given)	%	-27.1

# input molecule: CC(C)[C@@H](C(=O)N1CCC[C@H]1C(=O)OCc1ccccc1)N(C)C(=O)[C@H](C(C)C)N(C)C(=O)[C@H](Cc1ccccc1)N(C)C(=O)[C@H](NC(=O)OC(C)(C)C)C(C)C (Boc-[dV][NMeF][NMeV][NMeV]P-OBn) ; wanted: its growth inhibition
-38.1

====

ASSAY PROCEDURE: NCI Yeast Anticancer Drug Screen. Data for the bub3 strain (AID 167)
TEST PARAMETERS: S. cerevisiae bub3 mutant strain, active compounds read high; at 50.0 µM unless noted
Compounds without any hit were thinned out: in the full panel of roughly 79,000, 15% have a hit.
Measured growth inhibition, listed per entry.
Numeric only. Scale: %

COMPOUND	MEASURED PARAMETER	ASSAY VALUE
CSC(SC)c1cc(C)no1	growth inhibition	-10.2

Fill in: growth inhibition of Cc1cc2nc3c(C(OC4OC(CO)C(O)C(O)C4O)C(O)CO)nn(-c4ccc(F)cc4)c3nc2cc1C (stereo not drawn) is ___
3.45

Give the measured growth inhibition of Cn1c(=O)[nH]c2ccc(Cl)cc2c1=O .
8.15

// query growth inhibition value for entry CCCCCCC(=O)C/C(=N/NC(N)=S)C(=O)NC1C2CC3CC(C2)CC1C3 (stereo not drawn)
-2.3

Request the reported growth inhibition associated with CC1Nc2ccccc2C1C (stereo not drawn)
-59.6

Returns the measured growth inhibition for the input compound. Input: CCCCC(CC)C(O)P(=O)(O)O (stereo not drawn)
2.8

Need growth inhibition of COC(=O)c1c(C)ccc(C)c1Nc1cc(C)ccc1C , thanks.
5.65

Fill blank: measured growth inhibition of the compound CCOC(=O)CSCC(C)C(=O)OC (stereo not drawn) is ____.
2.5

What value of growth inhibition has been reported for the following compound? COc1ccc(C=C(C(=O)O)C(=O)O)cc1
22

Given COc1cccc(C2SCC(=O)N2c2ccc(-n3c(-c4ccccc4)nc4ccccc4c3=O)cc2)c1OC (stereo not drawn) , state its recorded growth inhibition.
22.4

State the recorded growth inhibition for this entry: CN(C)C(=O)Sc1ccc(C(C)(C)C)cc1
-1.65

I have this compound here, Cc1ccc(OC/C=C/CSc2ccc(Br)cc2)cc1 , and I need its recorded growth inhibition.
-19.9

Query (compound): COc1ccccc1NC(=O)Oc1c(C(C)C)cccc1C(C)C ; field requested: growth inhibition
20

====

ASSAY PROCEDURE: NCI Yeast Anticancer Drug Screen. Data for the bub3 strain (AID 167)
TEST PARAMETERS: S. cerevisiae bub3 mutant strain, active compounds read high; at 50.0 µM unless noted
The panel holds about 79,000 compounds, 15% with a hit somewhere; the sample as a whole holds those more often.
Reported growth inhibition is given for each of the following molecules.
Respond with the bare value in %.

MOLECULE	growth inhibition, %
CCOC(CC(=O)NCCNC(C)=O)OCC	18.4
COc1cc2cnc3c4cc(OCc5ccccc5)ccc4ccc3c2cc1OC	14.2

growth inhibition for CC(=O)NC(CCC(C)C)C(=O)O (stereo not drawn) ?
15.6

// returns reported growth inhibition for input CC1(C)OCC[C@@H]1[Si](C)(C)C
-3.45

Give its growth inhibition value. Item: OCCCNCc1ccccn1
-12.2

Looking for the measured growth inhibition of O=C(CNc1nncs1)NO , can you help?
-1.35

====

ASSAY PROCEDURE: NCI Yeast Anticancer Drug Screen. Data for the rad50 strain (AID 155);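 further: 0% = growth of vehicle-only cultures of the same strain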
TEST PARAMETERS: S. cerevisiae rad50 strain growth inhibition, active compounds read high; at 50.0 µM unless noted
Compounds without any hit were thinned out: in the full panel of roughly 79,000, 15% have a hit.
The label depends only on growth inhibition: Satisfied if it is at least 20%, Not satisfied if it is smaller.

Completed entries (count: 5):
MOLECULE	QUALITATIVE LABEL
CC1(C)N=C(N)N=C(N)N1CCCOc1ccc(N)cc1	Satisfied
Cc1c(Cl)cccc1NC(=O)C(=O)c1c(O)c2ccc(O)cc2oc1=O	Not satisfied
Clc1ccc2[nH]c3c(c2c1)CCCC3	Not satisfied
C=CCSC(=S)Nc1nc2ccc([N+](=O)[O-])cc2s1	Not satisfied
CCN(CCN1CCCCC1)c1ccccn1	Not satisfied

Is growth inhibition at least 20%? Consider O=C1c2ccccc2C(=O)N1CCCCCCCCCCN1C(=O)c2ccccc2C1=O
Satisfied

Check if growth inhibition >= 20% (inclusive). Item: C=CCOC(=O)CCCC1=NC2=CC=CC3=NC(C)=NC(=N1)N23
Not satisfied

Hi team, for CC1(C)OC2COC(OCc3ccccc3)C(OCc3ccccc3)C2O1 (configuration not stated) , is the recorded growth inhibition at or above 20%?
Not satisfied

Has CC(C)=CC(=O)CNC(N)=S a recorded growth inhibition greater than or equal to 20%?
Satisfied

growth inhibition >= 20% for S=C(Nc1ccc2c(c1)oc1ccccc12)c1cccs1 ?
Satisfied

growth inhibition >= 20% for CCOC(CN)(OCC)c1ccncc1 ?
Not satisfied

Does the molecule Cc1ccc2nc(Sc3c([N+](=O)[O-])ncn3C)[nH]c2c1 have recorded growth inhibition that is 20% or more?
Not satisfied

====

Examples of compounds with documented growth inhibition follow.
ASSAY PROCEDURE: NCI Yeast Anticancer Drug Screen. Data for the rad50 strain (AID 155);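 further: 0% = growth of vehicle-only cultures of the same strain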
TEST PARAMETERS: S. cerevisiae rad50 strain growth inhibition, active compounds read high; at 50.0 µM unless noted
Compounds without any hit were thinned out: in the full panel of roughly 79,000, 15% have a hit.
All answers are understood in %, so give the number only.

Need growth inhibition, item O=S(=O)(c1ccccn1)c1nc2ccccc2s1
-1.75

Dear colleague, I am looking for the recorded growth inhibition of the following compound: O=c1cc(Cl)c(=O)n(-c2ccccc2)[nH]1
3.5

Returns the measured growth inhibition for the input compound. Input: CCCNC(=O)Oc1ccccc1C(=O)NCO
-3.5

I would be grateful if you could share the reported growth inhibition for CC1(c2ccccc2)C(=O)c2ccccc2-c2ccccc21 (configuration not stated) .
63.5

Name the recorded growth inhibition for Cc1cc(O)c(C)cc1O .
16.1

Endpoint output: growth inhibition of Cc1ccc(S(=O)(=O)/C=C(/SC#N)C2CCCCC2)cc1 . Value?
32.5

Quick one: growth inhibition of CC1CC1C(N)C1CC1C (configuration not stated) ?
10.3
